Cited source: a collection of fitness landscapes (doi:10.1016/j.celrep.2020.107928)

B1: Caulobacter ParB omega fusion; a variant is named by its letters at X, in order, B8GW30 (parent)
chain: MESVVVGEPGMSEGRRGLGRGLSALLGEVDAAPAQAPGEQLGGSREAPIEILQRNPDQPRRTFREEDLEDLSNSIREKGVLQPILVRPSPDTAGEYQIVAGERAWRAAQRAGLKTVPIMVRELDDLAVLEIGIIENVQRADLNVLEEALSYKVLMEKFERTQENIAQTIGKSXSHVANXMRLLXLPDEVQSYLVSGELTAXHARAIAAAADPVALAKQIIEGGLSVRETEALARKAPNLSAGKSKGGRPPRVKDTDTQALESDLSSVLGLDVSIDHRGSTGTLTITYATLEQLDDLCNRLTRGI

Variants of: B1
assay_protocol: one-hybrid fitness for binding parS DNA (scaled: cognate 1, non-cognate 0); higher = stronger binding
condition_details: with parS DNA site
Over roughly 81,000 sequences, “one-hybrid fitness for binding parS DNA” has its median near -0.17; the highest 2% begin near 0.51. Shown is part of a subset that was picked to be rich in the highest values.

# mutation_string, one-hybrid fitness for binding parS DNA
data = [
    ("RKWH", "≤ 0.2"),
    ("RQSS", 0.979),
    ("RDAA", "≤ 0.2"),
    ("GKVS", "≤ 0.2"),
    ("MDVV", "≤ 0.2"),
    ("PSLL", "≤ 0.2"),
    ("RIPS", 0.812),
    ("PETC", "≤ 0.2"),
    ("RYCC", 0.903),
    ("RKCK", "≤ 0.2"),
    ("RPEA", "≤ 0.2"),
    ("RLNT", 0.908),
    ("RMTN", 0.45),
    ("TGSG", "≤ 0.2"),
    ("RNTA", 0.473),
    ("QDDR", "≤ 0.2"),
    ("GPIF", "≤ 0.2"),
    ("RYWF", 0.258),
    ("VTSQ", "≤ 0.2"),
    ("RYWC", 0.887),
    ("RHTA", 0.516),
    ("RQWH", "≤ 0.2"),
    ("RIIP", "≤ 0.2"),
    ("LRAY", "≤ 0.2"),
    ("RKCY", 0.369),
    ("RYCF", "≤ 0.2"),
    ("CDRV", "≤ 0.2"),
    ("DTNY", "≤ 0.2"),
    ("PMST", "≤ 0.2"),
    ("HPWF", "≤ 0.2"),
    ("RATD", "≤ 0.2"),
    ("RLNN", 0.455),
    ("EFAA", "≤ 0.2"),
    ("REQT", "≤ 0.2"),
    ("LVHY", "≤ 0.2"),
    ("RCEA", 0.515),
    ("RLDM", 0.299),
    ("PVDT", "≤ 0.2"),
    ("RRGH", "≤ 0.2"),
    ("RREA", 0.802),
    ("RIID", "≤ 0.2"),
    ("SMFV", "≤ 0.2"),
    ("AQCS", "≤ 0.2"),
    ("RGTA", 0.376),
    ("RLEA", 0.567),
    ("HSHL", "≤ 0.2"),
    ("RDQT", "≤ 0.2"),
    ("RIPD", "≤ 0.2"),
    ("HYRC", "≤ 0.2"),
    ("RPAA", "≤ 0.2"),
    ("QWRP", "≤ 0.2"),
    ("SFPL", "≤ 0.2"),
    ("RRGD", "≤ 0.2"),
    ("RYCR", "≤ 0.2"),
    ("RSTA", 0.578),
    ("RRGS", 0.639),
    ("RSQT", 0.874),
    ("LCNK", "≤ 0.2"),
    ("RDTA", "≤ 0.2"),
    ("RQQD", "≤ 0.2"),
    ("RYYQ", "≤ 0.2"),
    ("RYRK", "≤ 0.2"),
    ("RKWT", 0.759),
    ("IEES", "≤ 0.2"),
    ("HQCG", "≤ 0.2"),
    ("RTKG", 0.872),
    ("RQSP", "≤ 0.2"),
    ("MITC", "≤ 0.2"),
    ("RKTA", 0.746),
    ("RATS", 1),
    ("RWAA", 0.378),
    ("TQQS", "≤ 0.2"),
    ("RQAS", 0.988),
    ("RQQP", "≤ 0.2"),
    ("RTVH", "≤ 0.2"),
    ("SLTS", "≤ 0.2"),
    ("TCKK", "≤ 0.2"),
    ("RFEA", 0.454),
    ("RLDT", 0.806),
    ("NSGN", "≤ 0.2"),
    ("RQSN", 0.438),
    ("DNAR", "≤ 0.2"),
    ("RQQS", 0.987),
    ("RKST", 0.749),
    ("RKNK", "≤ 0.2"),
    ("RGAA", 0.32),
    ("RFAA", 0.559),
]
